Origin of the recorded values: ChEMBL document CHEMBL1148694

- PROTOCOL: Induction of differentiation in human HL60-G cells assessed as CD11b expression
- Type: functional
Assign labels as follows, please: 1 for ED20 below 20 nM; -1 for ED20 equal to or exceeding 20 nM.

CC(C)(O)CC[C@@H]1C[C@@]1(CC#CC(O)(C(F)(F)F)C(F)(F)F)[C@H]1CCC2/C(=C/C=C3C[C@@H](O)C[C@H](O)C3)CCC[C@@]21C (stereo not given in full); 1
CC(C)(O)CCC[C@@]1([C@H]2CCC3/C(=C/C=C4C[C@@H](O)C[C@H](O)C4)CCC[C@@]32C)C[C@H]1CCC(C)(C)O (stereo not given in full); -1

QUERY: Please check: ED20 for C=C1/C(=C\C=C2/CCC[C@@]3(C)C2CC[C@@H]3[C@]2(CC#CC(O)(C(F)(F)F)C(F)(F)F)C[C@H]2CCC(C)(C)O)C[C@@H](O)C[C@@H]1O (stereo not given in full) , strictly under 20 nM or not?
RESULT: 1

QUERY: Try this compound too: C=C1/C(=C\C=C2/CCC[C@@]3(C)C2CC[C@@H]3[C@H](C)CCCC(C)(C)O)C[C@@H](O)C[C@H]1O (stereo not given in full)
RESULT: 1
